Known growth at 10 µM of a selection of compounds
System: A498
assay info: Antiproliferative activity against human A498 cells assessed as cell growth at 10 uM
Format: functional
condition details: read-out: Activity
Use % as the unit, but write only the number.

- item smiles: "CN(C)c1ccc(-c2nc3ccc4c(c3[nH]2)C(=O)c2ccccc2C4=O)cc1"
  growth at 10 µM [%]: 86.1
- item smiles: "COc1cc(-c2nc3ccc4c(c3[nH]2)C(=O)c2ccccc2C4=O)ccc1O"
  growth at 10 µM [%]: 122
- item smiles: "O=C1c2ccccc2C(=O)c2c1ccc1nccnc21"
  growth at 10 µM [%]: 98.8

Look up and report measured growth at 10 µM for this entry: O=C1c2ccccc2C(=O)c2c1ccc1nc(-c3ccc4c(c3)OCO4)[nH]c21
91.7

Item CC1(C)Nc2ccc3c(c2N1)C(=O)c1ccccc1C3=O : provide growth at 10 µM
80.6

Give the measured growth at 10 µM for O=C1c2ccccc2C(=O)c2c1ccc1nc(-c3ccc(Br)cc3)[nH]c21
117

Given N#Cc1ccc(-c2nc3ccc4c(c3[nH]2)C(=O)c2ccccc2C4=O)cc1 , respond with its growth at 10 µM.
96.2

Give the reported value of growth at 10 µM for this record: Cc1ccc(-c2nc3ccc4c(c3[nH]2)C(=O)c2ccccc2C4=O)cc1
176

Determine its reported growth at 10 µM: O=C1c2ccccc2C(=O)c2c1ccc1nsnc21
130

In one line, give reported growth at 10 µM of the entry CCc1nc2ccc3c(c2[nH]1)C(=O)c1ccccc1C3=O .
28.9

Return reported growth at 10 µM. Input compound: O=C1c2ccccc2C(=O)c2c1ccc1nc(-c3ccccc3)[nH]c21
77

###

Attribute: growth at 10 µM
Test system: NCI-H322M
assay info: Antiproliferative activity against human NCI-H322M cells assessed as cell growth at 10 uM
Format: functional
condition details: read-out: Activity
Write down the numeric answer in % and omit the unit.

Below are worked cases with known answers.
- item smiles: "O=C1c2ccccc2C(=O)c2c1ccc1nsnc21"
  growth at 10 µM (%): 126
- item smiles: "COc1cc(-c2nc3ccc4c(c3[nH]2)C(=O)c2ccccc2C4=O)ccc1O"
  growth at 10 µM (%): 107

Here is the next item to consider.
Write down the reported growth at 10 µM (system: NCI-H322M) of N#Cc1ccc(-c2nc3ccc4c(c3[nH]2)C(=O)c2ccccc2C4=O)cc1
127

###

assay info: Cytotoxicity against human H1299 cells at 10 uM after 48 hrs by MTT assay
Format: functional
condition details: NCI-H1299, 48 h
property label: viability at 10 µM (%)
Kindly answer with a numeric value in %, unit omitted.

Below are worked cases with known answers.
- compound: "CC(C)c1nc2ccc3c(c2[nH]1)C(=O)c1ccccc1C3=O"
  units label: "%"
  viability at 10 µM: 73
- compound: "COc1cc(-c2nc3ccc4c(c3[nH]2)C(=O)c2ccccc2C4=O)ccc1O"
  units label: "%"
  viability at 10 µM: 70
- compound: "CC(C)(C)c1nc2ccc3c(c2[nH]1)C(=O)c1ccccc1C3=O"
  units label: "%"
  viability at 10 µM: 81
- compound: "CCC(C)c1nc2ccc3c(c2[nH]1)C(=O)c1ccccc1C3=O (stereo not given)"
  units label: "%"
  viability at 10 µM: 83

Answer with the recorded viability at 10 µM for the compound listed here: O=C1c2ccccc2C(=O)c2c1ccc1[nH]c(=S)[nH]c21
99

Return viability at 10 µM for the following compound: O=C1c2ccccc2C(=O)c2c1ccc1nc(CCl)[nH]c21
79

Read the entry CN(C)c1ccc(-c2nc3ccc4c(c3[nH]2)C(=O)c2ccccc2C4=O)cc1 and write its reported viability at 10 µM.
62
